# maps each entry to its shrunken log2 fold change
System: Escherichia coli TOP10;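 also: peptides expressed intracellularly from a pBAD plasmid library in pooled LB shake-flask culture, induced with 0.3% L-arabinose, DNA abundance read by NGS, three biological replicates, DESeq2 with apeglm shrinkage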
experiment: shrunken log2 fold change of peptide-encoding DNA abundance (4.5 h post-induction vs induction); higher = less antimicrobial activity (less host growth inhibition)
conditionContext: time post-induction: 4.5 h; library: site-saturation at positions 5, 18, 19, 20
Respond numerically, and do not add a unit to the figure.

> print(dat)
           sequencecontent            measurementtype  observedresult
1  RRIRVRPPRLPRPRPRPPQTPRP  shrunken log2 fold change          0.0537
2  RRIRQRPPRLPRPRPRPTMMPRP  shrunken log2 fold change          -0.194

# input May I ask what shrunken log2 fold change has been recorded for `RRIRHRPPRLPRPRPRPREQPRP` ?
# output 0.628

# input Do the same for `RRIRMRPPRLPRPRPRPWPTPRP` please
# output 0.675

# input Do the same for `RRIRKRPPRLPRPRPRPYHKPRP` please
# output 0.0411
